Tested on: NTUB1 cells
Assay: MTT cytotoxicity assay, NTUB1 cells
Format: cell-based, human
Details: Homo sapiens, NTUB1, 72 hours, mean ± SD, n = 3-5
IC50 for assorted molecules
assay-endpoint: IC50

* COc1ccc(OC)c(C(=O)/C=C/c2ccc(C(=O)N(C)C)cc2)c1 [Compound 12] | 3.89 µM
* COc1ccc(OC)c(C(=O)/C=C/c2ccc(C(=O)OCc3ccccc3)cc2)c1 [Compound 6] | 13.3 µM
* COc1ccc(OC)c(C(=O)/C=C/c2ccc(C(=O)O)cc2)c1 [Compound 1, 4-carboxyl-2′,5′-dimethoxychalcone] | 5.7 µM
* COc1ccc(OC)c(C(=O)/C=C/c2ccc(C(=O)O)s2)c1 [Compound 18] | > 50 µM
* COC(=O)c1ccc(/C=C/C(=O)c2cc(OC)ccc2OC)cc1 [Compound 2] | 3.51 µM
* CCCNC(=O)c1ccc(/C=C/C(=O)c2cc(OC)ccc2OC)cc1 [Compound 10] | 2.26 µM
* COc1ccc(OC)c(C(=O)/C=C/c2ccc(C(=O)OCC=C(C)C)cc2)c1 [Compound 7] | 13.4 µM
* COc1ccc(OC)c(C(=O)/C=C/c2ccc(C(=O)NC3CCCCC3)cc2)c1 [Compound 13] | 2.25 µM

====

assay-endpoint: melting point

• CCOC(=O)c1ccc(/C=C/C(=O)c2cc(OC)ccc2OC)cc1 (hydrate or solvate) = 118 to 119 °C
• COc1ccc(OC)c(C(=O)/C=C/c2ccc(C(=O)NC3CCCCC3)cc2)c1 = 280 to 281 °C
• COc1ccc(OC)c(C(=O)/C=C/c2ccc(C(=O)O)s2)c1 = 237 to 238 °C
• CNC(=O)c1ccc(/C=C/C(=O)c2cc(OC)ccc2OC)cc1 = 217 to 218 °C
• CCNC(=O)c1ccc(/C=C/C(=O)c2cc(OC)ccc2OC)cc1 = 213 to 214 °C
• COc1ccc(OC)c(C(=O)/C=C/c2ccc(C(=O)O)cc2)c1 = 214 to 215 °C
• COC(=O)c1ccc(/C=C/C(=O)c2cc(OC)ccc2OC)cc1 = 118 to 119 °C

====

Test system: NTUB1 cells
Assay: MTT cytotoxicity assay, NTUB1 cells
Assay type: cell-based, human
Details: Homo sapiens, NTUB1, 72 hours, mean ± SD, n = 3-5
assay-endpoint: IC50 (µM)

- CCNC(=O)c1ccc(/C=C/C(=O)c2cc(OC)ccc2OC)cc1: 3.76
- COc1ccc(OC)c(C(=O)/C=C/c2ccc(C(=O)OC(C)C)cc2)c1: 4.42
- CCN(CC)C(=O)c1ccc(/C=C/C(=O)c2cc(OC)ccc2OC)cc1: 2.69
- CNC(=O)c1ccc(/C=C/C(=O)c2cc(OC)ccc2OC)cc1: 2.2
- CCOC(=O)c1ccc(/C=C/C(=O)c2cc(OC)ccc2OC)cc1: 4.49

====

System: NTUB1 cells
Assay: MTT cytotoxicity assay, NTUB1 cells
Format: cell-based, human
Details: 72 hours, mean ± SD, n = 3-5
The label true (1) is reserved for IC50 strictly under 4 µM; false (0) covers values equal to or above it.

• CCCOC(=O)c1ccc(C=CC(=O)c2cc(OC)ccc2OC)cc1 [Compound 4, propoxycarbonyl-2′,5′-dimethoxychalcone] = false (0)
• N.N.[Cl][Pt][Cl] [Cisplatin, cisplatin, reference compound] = true (1)
• COc1ccc(OC)c(C(=O)C=Cc2ccc(C(=O)N3CCCC3)cc2)c1 [Compound 15] = true (1)
• COc1ccc(OC)c(C(=O)C=Cc2ccc(C(=O)N(C)CCO)cc2)c1 [Compound 16] = false (0)
• COc1ccc(OC)c(C(C=Cc2ccc(C(=O)NC3CC3)cc2)=NC2CC2)c1 [Compound 17] = true (1)

meta.source: patent US20110306775A1
